target.system: furin, P09958;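 note: purified furin at 1:10 enzyme:substrate in 50 mM HEPES pH 7.5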
Sequence (P09958 whole entry): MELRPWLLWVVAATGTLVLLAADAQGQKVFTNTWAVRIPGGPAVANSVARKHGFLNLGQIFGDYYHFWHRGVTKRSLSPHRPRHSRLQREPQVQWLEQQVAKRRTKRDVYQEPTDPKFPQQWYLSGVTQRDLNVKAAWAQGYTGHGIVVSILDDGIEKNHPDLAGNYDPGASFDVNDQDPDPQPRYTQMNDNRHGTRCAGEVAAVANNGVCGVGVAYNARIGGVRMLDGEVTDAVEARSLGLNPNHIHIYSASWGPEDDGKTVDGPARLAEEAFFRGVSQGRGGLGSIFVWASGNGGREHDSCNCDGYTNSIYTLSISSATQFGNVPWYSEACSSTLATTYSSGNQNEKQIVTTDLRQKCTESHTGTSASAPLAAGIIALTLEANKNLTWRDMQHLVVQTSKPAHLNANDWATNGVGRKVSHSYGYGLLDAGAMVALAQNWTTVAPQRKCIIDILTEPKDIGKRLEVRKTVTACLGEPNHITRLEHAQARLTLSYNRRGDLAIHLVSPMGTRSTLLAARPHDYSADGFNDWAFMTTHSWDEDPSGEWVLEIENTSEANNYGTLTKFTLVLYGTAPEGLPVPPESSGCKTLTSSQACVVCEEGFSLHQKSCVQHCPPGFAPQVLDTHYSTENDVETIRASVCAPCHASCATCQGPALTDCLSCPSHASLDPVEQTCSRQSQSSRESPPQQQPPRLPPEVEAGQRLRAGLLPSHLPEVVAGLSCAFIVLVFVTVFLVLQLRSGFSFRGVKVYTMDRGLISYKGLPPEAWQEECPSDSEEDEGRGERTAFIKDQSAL
protocol.details: furin cleavage Z-score vs untreated control; higher = more cleavage, active = 3.5 or more, inactive = 1 or less, 8 variable residues between constant flanks
run.parameters: 7.5 min
Some of the results follow. How many sequences the whole screen found active is unknown.
Return exactly one item of 1 (active), -1 (inactive)

The following sequences have reported results that may help.
CANAVAYYRGAGNASASA [HC867] = -1
CAEVPCHRWSAGNASASA [HC2388] = -1
CAVPASAYQVAGNASASA [HC254] = -1
CASASRGPRSAGNASASA [FS-1078] = 1
CAMEECSEHLAGNASASA [HC1732] = -1

Prompt line: What did the test return for CAAKARGPRSAGNASASA [FS-745] ?
Response line: 1

Prompt line: Entry CARQKRNKIPAGNASASA [FS-2290] please
Response line: -1

Prompt line: Follow-up item: CAGEMEECSQAGNASASA [HC1796]
Response line: -1

Prompt line: Repeat with CARVKRVSHSAGNASASA [FS-2619]
Response line: -1

Prompt line: Okay, and CAARGSPPSVAGNASASA [HC1256] ?
Response line: -1

Prompt line: Same again, this time with CAEVPCHRPGAGNASASA [HC2416]
Response line: -1

Prompt line: Next record, please: CARAERGPRSAGNASASA [FS-1058]
Response line: 1

Prompt line: Then CAGEMRKKRYAGNASASA [FS-780] ?
Response line: 1
